Test system: CCRIS mutagenicity, Ames/micronucleus/aberration tests
protocol.notes: CCRIS mutagenicity studies
measurement.parameters: Test System: AMES SALMONELLA TYPHIMURIUM; Strain/Indicator: TA97; Metabolic Activation: NONE; Method: PREINCUBATION
Calls of active or inactive are those of the source. How the calls were made is not given here.
Output constraint: value belongs to class 1 = active, class 0 = inactive

Could you kindly confirm the outcome this assay logged for `CCCCOCCCC` ?
class 0

Next:
Could you kindly confirm the outcome this assay logged for `CC(=O)Nc1cccc(C)c1` ?
class 0

Could you kindly confirm the outcome this assay logged for `CC(=O)Nc1ccccc1N` ?
class 1

Could you kindly confirm the outcome this assay logged for `O=C(O)/C=C\C(=O)O` ?
class 0

---

Tested on: CCRIS mutagenicity, Ames/micronucleus/aberration tests
protocol.notes: CCRIS mutagenicity studies
measurement.parameters: Test System: E.COLI; Strain/Indicator: WP2UVRA; Metabolic Activation: RAT LIVER S-9, PHENOBARBITAL AND BETA-NAPHTHOFLAVONE; Method: PREINCUBATION
Calls of active or inactive are those of the source. No rule for the calls is given here.
Output constraint: value belongs to active, inactive

Could you kindly confirm the outcome this assay logged for `Cc1ccccn1` ?
inactive

Could you kindly confirm the outcome this assay logged for `C1CCCNCC1` ?
inactive

Could you kindly confirm the outcome this assay logged for `Cc1ccccc1S(N)(=O)=O` ?
inactive

Could you kindly confirm the outcome this assay logged for `OCCOCCOCCO` ?
inactive

Could you kindly confirm the outcome this assay logged for `Cc1nc(N)nc(N)n1` ?
inactive

Could you kindly confirm the outcome this assay logged for `CCOS(=O)(=O)OCC` ?
active

Could you kindly confirm the outcome this assay logged for `O.O.O.O.O.[Cd+2].[Cd+2].[Cl-].[Cl-].[Cl-].[Cl-]` ?
inactive

Could you kindly confirm the outcome this assay logged for `O=C(O)c1ccc2c(c1)C(=O)OC2=O` ?
inactive

Could you kindly confirm the outcome this assay logged for `Cc1cc(-c2ccc(N=C=O)c(C)c2)ccc1N=C=O` ?
inactive

Could you kindly confirm the outcome this assay logged for `O=S(=O)(O)c1cc(S(=O)(=O)O)c2cc(O)ccc2c1` ?
inactive

Next compound, please.
Could you kindly confirm the outcome this assay logged for `C=C(C)C(=O)OCCN(C)C` ?
inactive

---

System: CCRIS mutagenicity, Ames/micronucleus/aberration tests
protocol.notes: CCRIS mutagenicity studies
measurement.parameters: Test System: AMES SALMONELLA TYPHIMURIUM; Strain/Indicator: TA97A; Metabolic Activation: NONE; Method: STANDARD PLATE
Activity calls are given as the source filed them. How the calls were made is not given here.
Output constraint: value belongs to Yes = active, No = inactive

Could you kindly confirm the outcome this assay logged for CCOC(=O)CC(SP(=S)(OC)OC)C(=O)OCC (centres undefined) ?
No

Could you kindly confirm the outcome this assay logged for `O=C(O)c1cc(O)c2c(c1)C(=O)c1cccc(O)c1C2=O` ?
No

Next:
Could you kindly confirm the outcome this assay logged for `CCOCC(=O)O` ?
No

Could you kindly confirm the outcome this assay logged for `COC1=CC(=O)c2c(ncc3c4c([nH]c23)CCCC4)C1=O` ?
Yes

Could you kindly confirm the outcome this assay logged for `Cc1cc(Cl)ccc1OCC(=O)O` ?
No

Could you kindly confirm the outcome this assay logged for `CCc1ccc(C)cc1` ?
No

Could you kindly confirm the outcome this assay logged for `CNC(=O)CSP(=S)(OC)OC` ?
No

Could you kindly confirm the outcome this assay logged for `Cn1cnc2c1c(=O)[nH]c(=O)n2C` ?
No

Could you kindly confirm the outcome this assay logged for `CC(C)(c1ccc(O)cc1)c1ccc(O)cc1` ?
No

Could you kindly confirm the outcome this assay logged for `F` ?
No

Could you kindly confirm the outcome this assay logged for `CC1(C)[C@@H]2CC[C@@]1(C)C(=O)C2=O` ?
No

Could you kindly confirm the outcome this assay logged for `COc1ccc2cc([C@H](C)C(=O)O)ccc2c1` ?
No

Could you kindly confirm the outcome this assay logged for `COc1cc(Cc2cnc(N)nc2N)cc(OC)c1OC` ?
No

Could you kindly confirm the outcome this assay logged for COc1cc(NC(C)CCCN)c2ncccc2c1 (centres undefined) ?
No
